Item-by-item account of pIC50
# test system: Human MDM2 (HDM2) 1-116 (Homo sapiens)
# Construct: Human MDM2 (HDM2) 1-116
# measurement description: Fluorescence polarization assay 2, MDM2 (Table 4)
# Type: binding
# conditions used: Table 4; fluorescence polarization; read-out: MDM2 IC50
pIC50: −log10 of the molar value. Non-standard residues stand in square brackets, D forms with d. Residues, ends and D or L forms follow the SMILES beside them. NEtPhe(4-F) = CCN[C@@H](Cc1ccc(F)cc1)C(=O)O; Ala(4-thiazolyl) = N[C@@H](Cc1cscn1)C(=O)O; Phe(4-Cl) = N[C@@H](Cc1ccc(Cl)cc1)C(=O)O; Phe(4-F) = N[C@@H](Cc1ccc(F)cc1)C(=O)O; NMeF = CN[C@@H](Cc1ccccc1)C(=O)O; Tle = CC(C)(C)[C@H](N)C(=O)O; NMeV = CN[C@H](C(=O)O)C(C)C; hSer = N[C@@H](CCO)C(=O)O; NMeA = CN[C@@H](C)C(=O)O; dNMeA = CN[C@H](C)C(=O)O; Nme = COCCNCC(=O)O

molecule	pIC50
COCC[C@@H]1NC(=O)[C@H]2CCCN2C(=O)[C@H](Cc2ccccc2)N(C)C(=O)[C@H](Cc2ccc(Cl)cc2)NC(=O)[C@H](C)N(C)C(=O)[C@H](Cc2ccc(F)cc2)NC(=O)[C@H](C)N(C)C(=O)[C@@H](C)N(C)C(=O)[C@H](Cc2cscn2)NC(=O)[C@H](C)N(C)C1=O [Compound 34] (cyclo([Ala(4-thiazolyl)][dNMeA][NMeA][Phe(4-F)][NMeA][Phe(4-Cl)][NMeF][dP][hSer](Me)[NMeA]))	7.30 to 7.60
COCC[C@@H]1NC(=O)[C@H]2CCCN2C(=O)[C@H](Cc2ccccc2)N(C)C(=O)[C@H](Cc2ccc(Cl)cc2)NC(=O)[C@H](C(C)C)N(C)C(=O)[C@H](Cc2ccc(F)cc2)NC(=O)CN(CCOC)C(=O)[C@@H](C)N(C)C(=O)[C@H](Cc2cscn2)NC(=O)[C@H](C)N(C)C1=O [Compound 43] (cyclo([Ala(4-thiazolyl)][dNMeA][Nme][Phe(4-F)][NMeV][Phe(4-Cl)][NMeF][dP][hSer](Me)[NMeA]))	7.30 to 7.60
COCC[C@@H]1NC(=O)[C@H]2CCCN2C(=O)[C@H](Cc2ccccc2)N(C)C(=O)[C@H](Cc2ccc(Cl)cc2)NC(=O)[C@H](C(C)(C)C)NC(=O)[C@H](Cc2ccc(F)cc2)NC(=O)CN(CCOC)C(=O)[C@@H](C)N(C)C(=O)[C@H](Cc2cscn2)NC(=O)[C@H](C)N(C)C1=O [Compound 35] (cyclo([Ala(4-thiazolyl)][dNMeA][Nme][Phe(4-F)][Tle][Phe(4-Cl)][NMeF][dP][hSer](Me)[NMeA]))	7.00 to 7.30
COCC[C@@H]1NC(=O)[C@H]2CCCN2C(=O)[C@H](Cc2ccccc2)N(C)C(=O)[C@H](Cc2ccc(Cl)cc2)NC(=O)[C@H](C(C)(C)C)NC(=O)[C@H](Cc2ccc(F)cc2)NC(=O)[C@H](C)N(C)C(=O)[C@@H](C)N(C)C(=O)[C@H](Cc2cscn2)NC(=O)[C@H](C)N(C)C1=O [Compound 36] (cyclo([Ala(4-thiazolyl)][dNMeA][NMeA][Phe(4-F)][Tle][Phe(4-Cl)][NMeF][dP][hSer](Me)[NMeA]))	> 7.60

Record CCN1C(=O)[C@H](Cc2ccc(Cl)cc2)NC(=O)[C@H](C(C)(C)C)NC(=O)[C@H](Cc2ccc(F)cc2)NC(=O)CN(CCOC)C(=O)[C@@H](C)N(C)C(=O)[C@H](Cc2cscn2)NC(=O)[C@H](C)N(C)C(=O)[C@H](CCOC)NC(=O)[C@H]2CCCN2C(=O)[C@@H]1Cc1ccc(F)cc1 [Compound 44] (cyclo([Ala(4-thiazolyl)][dNMeA][Nme][Phe(4-F)][Tle][Phe(4-Cl)][NEtPhe(4-F)][dP][hSer](Me)[NMeA])) , field pIC50: 7.00 to 7.30

---

# measurement description: Pharmacokinetic parameters of Compound 35, intravenous, mice
# Assay type: in vivo
# conditions used: mouse, 1 mg/kg, plasma
Non-standard residues stand in square brackets, D forms with d. Residues, ends and D or L forms follow the SMILES beside them. Ala(4-thiazolyl) = N[C@@H](Cc1cscn1)C(=O)O; Phe(4-Cl) = N[C@@H](Cc1ccc(Cl)cc1)C(=O)O; Phe(4-F) = N[C@@H](Cc1ccc(F)cc1)C(=O)O; NMeF = CN[C@@H](Cc1ccccc1)C(=O)O; Tle = CC(C)(C)[C@H](N)C(=O)O; hSer = N[C@@H](CCO)C(=O)O; NMeA = CN[C@@H](C)C(=O)O; dNMeA = CN[C@H](C)C(=O)O; Nme = COCCNCC(=O)O
readout: AUC(0-inf) (ng·h/mL)
Please respond with the number in ng·h/mL and leave the unit unwritten.

Record COCC[C@@H]1NC(=O)[C@H]2CCCN2C(=O)[C@H](Cc2ccccc2)N(C)C(=O)[C@H](Cc2ccc(Cl)cc2)NC(=O)[C@H](C(C)(C)C)NC(=O)[C@H](Cc2ccc(F)cc2)NC(=O)CN(CCOC)C(=O)[C@@H](C)N(C)C(=O)[C@H](Cc2cscn2)NC(=O)[C@H](C)N(C)C1=O [Compound 35] (cyclo([Ala(4-thiazolyl)][dNMeA][Nme][Phe(4-F)][Tle][Phe(4-Cl)][NMeF][dP][hSer](Me)[NMeA])) , field AUC(0-inf): 1040

---

# test system: Human MDM4 (HDM4) 1-114 (Homo sapiens)
# Construct: Human MDM4 (HDM4) 1-114
# Sequence (O15151 1-114): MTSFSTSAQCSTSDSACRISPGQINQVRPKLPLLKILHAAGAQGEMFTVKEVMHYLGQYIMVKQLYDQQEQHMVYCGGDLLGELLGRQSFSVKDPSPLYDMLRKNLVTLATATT
# measurement description: Fluorescence polarization assay 2, MDM4 (Table 4)
# Format: binding
# conditions used: Table 4; fluorescence polarization; read-out: MDM4 IC50
Non-standard residues stand in square brackets, D forms with d. Residues, ends and D or L forms follow the SMILES beside them. Ala(4-thiazolyl) = N[C@@H](Cc1cscn1)C(=O)O; NMePhe(4-F) = CN[C@@H](Cc1ccc(F)cc1)C(=O)O; Phe(4-Cl) = N[C@@H](Cc1ccc(Cl)cc1)C(=O)O; Phe(4-F) = N[C@@H](Cc1ccc(F)cc1)C(=O)O; hSer = N[C@@H](CCO)C(=O)O; NMeA = CN[C@@H](C)C(=O)O; dNMeA = CN[C@H](C)C(=O)O; Nme = COCCNCC(=O)O
readout: IC50

Record COCC[C@@H]1NC(=O)[C@H]2CCCN2C(=O)[C@H](Cc2ccc(F)cc2)N(C)C(=O)[C@H](Cc2ccc(Cl)cc2)NC(=O)[C@@H]2CCCN2C(=O)[C@H](Cc2ccc(F)cc2)NC(=O)CN(CCOC)C(=O)[C@@H](C)N(C)C(=O)[C@H](Cc2cscn2)NC(=O)[C@H](C)N(C)C1=O [Compound 47] (cyclo([Ala(4-thiazolyl)][dNMeA][Nme][Phe(4-F)]P[Phe(4-Cl)][NMePhe(4-F)][dP][hSer](Me)[NMeA])) , field IC50: 100 to 150 nM

---

Item-by-item account of IC50
# test system: Human MDM2 (HDM2) 1-116 (Homo sapiens, UniProt Q00987)
# Construct: Human MDM2 (HDM2) 1-116
# Sequence (Q00987 1-116): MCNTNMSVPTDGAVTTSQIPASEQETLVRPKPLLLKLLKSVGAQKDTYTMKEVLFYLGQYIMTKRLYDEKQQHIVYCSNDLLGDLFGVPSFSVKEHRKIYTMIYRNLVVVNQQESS
# measurement description: Fluorescence polarization assay, MDM2/p53 (Table 3)
# Assay type: binding
Non-standard residues stand in square brackets, D forms with d. Residues, ends and D or L forms follow the SMILES beside them. Phe(4-Cl) = N[C@@H](Cc1ccc(Cl)cc1)C(=O)O; Phe(4-F) = N[C@@H](Cc1ccc(F)cc1)C(=O)O; 3Pal = N[C@@H](Cc1cccnc1)C(=O)O; 2Thi = N[C@@H](Cc1cccs1)C(=O)O; NMeL = CN[C@@H](CC(C)C)C(=O)O; dNMeV = CN[C@@H](C(=O)O)C(C)C; NMeNle = CCCC[C@H](NC)C(=O)O; Tle = CC(C)(C)[C@H](N)C(=O)O; dPip = O=C(O)[C@H]1CCCCN1; NMeA = CN[C@@H](C)C(=O)O; Nme = COCCNCC(=O)O

The following compounds have reported results that may help.
compound	IC50
COCCN1CC(=O)N(C)[C@@H](C)C(=O)N[C@@H](Cc2ccc(F)cc2)C(=O)N(C)[C@@H](C)C(=O)N[C@@H](Cc2ccc(Cl)cc2)C(=O)N2CCCC[C@@H]2C(=O)N2CCC[C@H]2C(=O)N[C@@H](Cc2cccs2)C(=O)N[C@@H](C(C)(C)C)C(=O)N[C@@H](Cc2cccnc2)C1=O [Compound 20] (cyclo([2Thi][Tle][3Pal][Nme][NMeA][Phe(4-F)][NMeA][Phe(4-Cl)][dPip]P))	< 1 µM
CC(C)C[C@H]1C(=O)N[C@@H](CC(=O)O)C(=O)N[C@@H](Cc2ccc(F)cc2)C(=O)N[C@@H](CCC(=O)O)C(=O)N[C@@H](Cc2ccc(Cl)cc2)C(=O)N2CCC[C@@H]2C(=O)N2CCC[C@H]2C(=O)N[C@@H](Cc2ccccc2)C(=O)N[C@@H](CCC(=O)O)C(=O)N[C@@H](Cc2c[nH]c3ccccc23)C(=O)N1C [Compound 4] (cyclo(FEW[NMeL]D[Phe(4-F)]E[Phe(4-Cl)][dP]P))	< 1 µM

Record COCCN1CC(=O)N(C)[C@@H](C)C(=O)N[C@@H](Cc2ccc(F)cc2)C(=O)N(C)[C@@H](C)C(=O)N[C@@H](Cc2ccc(Cl)cc2)C(=O)N(C)[C@H](C(C)C)C(=O)N2CCC[C@H]2C(=O)N[C@@H](Cc2ccccc2)C(=O)N[C@@H](C(C)(C)C)C(=O)N[C@@H](Cc2ccc(O)cc2)C1=O [Compound 31] (cyclo(F[Tle]Y[Nme][NMeA][Phe(4-F)][NMeA][Phe(4-Cl)][dNMeV]P)) , field IC50: ≥ 5 µM

Record COCCN1CC(=O)N(C)[C@@H](C)C(=O)N[C@@H](Cc2ccc(F)cc2)C(=O)N(C)[C@@H](C)C(=O)N[C@@H](Cc2ccc(Cl)cc2)C(=O)N(C)[C@H](C(C)C)C(=O)N2CCC[C@H]2C(=O)N[C@@H](Cc2cccs2)C(=O)N[C@@H](C(C)(C)C)C(=O)N[C@@H](Cc2cccnc2)C1=O [Compound 17] (cyclo([2Thi][Tle][3Pal][Nme][NMeA][Phe(4-F)][NMeA][Phe(4-Cl)][dNMeV]P)) , field IC50: < 1 µM

Record CCCC[C@H]1C(=O)N[C@@H](Cc2ccccc2)C(=O)N2CCC[C@@H]2C(=O)N2CCC[C@H]2C(=O)N[C@@H](Cc2ccccc2)C(=O)N(C)[C@@H](CCCC)C(=O)N[C@@H](Cc2c[nH]c3ccccc23)C(=O)N(C)[C@@H](CC(C)C)C(=O)N[C@@H](CC(=O)O)C(=O)N[C@@H](Cc2c[nH]c3ccccc23)C(=O)N1C [Compound 7] (cyclo(F[NMeNle]W[NMeL]DW[NMeNle]F[dP]P)) , field IC50: ≥ 5 µM

Record CC(C)C[C@H]1C(=O)N[C@@H](CC(=O)O)C(=O)N[C@@H](Cc2ccc(F)cc2)C(=O)N[C@@H](CCC(=O)O)C(=O)N[C@@H](Cc2ccccc2)C(=O)N2CCC[C@@H]2C(=O)N2CCC[C@H]2C(=O)N[C@@H](Cc2cccs2)C(=O)N[C@@H](CCC(=O)O)C(=O)N[C@@H](Cc2c[nH]c3ccccc23)C(=O)N1C [Compound 5] (cyclo([2Thi]EW[NMeL]D[Phe(4-F)]EF[dP]P)) , field IC50: < 1 µM

Record C[C@H]1C(=O)N[C@@H](Cc2ccc(Cl)cc2)C(=O)N2CCCC[C@@H]2C(=O)N2CCC[C@H]2C(=O)N[C@@H](Cc2ccc(O)cc2)C(=O)N[C@@H](CCC(=O)O)C(=O)N[C@@H](Cc2cccnc2)C(=O)N2CCC[C@@H]2C(=O)N(C)[C@@H](C)C(=O)N[C@@H](Cc2ccc(F)cc2)C(=O)N1C [Compound 15] (cyclo([3Pal][dP][NMeA][Phe(4-F)][NMeA][Phe(4-Cl)][dPip]PYE)) , field IC50: 1 to 2.5 µM

Record C[C@H]1C(=O)N[C@@H](Cc2ccc(Cl)cc2)C(=O)N2CCCC[C@@H]2C(=O)N2CCC[C@H]2C(=O)N[C@@H](Cc2ccccc2)C(=O)N[C@@H](CCC(=O)O)C(=O)N[C@@H](Cc2ccc(O)cc2)C(=O)N2CCC[C@@H]2C(=O)N(C)[C@@H](C)C(=O)N[C@@H](Cc2ccc(F)cc2)C(=O)N1C [Compound 8] (cyclo(EY[dP][NMeA][Phe(4-F)][NMeA][Phe(4-Cl)][dPip]PF)) , field IC50: 2.5 to 5 µM

Record C[C@H]1C(=O)N[C@@H](Cc2ccc(F)cc2)C(=O)N[C@@H](CCC(=O)O)C(=O)N[C@@H](Cc2ccccc2)C(=O)N2CCCC[C@@H]2C(=O)N2CCC[C@H]2C(=O)N[C@@H](Cc2ccccc2)C(=O)N[C@@H](CCC(=O)O)C(=O)N[C@@H](Cc2c[nH]c3ccccc23)C(=O)N2CCC[C@@H]2C(=O)N1C [Compound 9] (cyclo(EF[dPip]PFEW[dP][NMeA][Phe(4-F)])) , field IC50: < 1 µM

Record C[C@H]1C(=O)N[C@@H](Cc2ccc(Cl)cc2)C(=O)N2CCCC[C@@H]2C(=O)N2CCC[C@H]2C(=O)N[C@@H](Cc2ccccc2)C(=O)N[C@@H](C(C)(C)C)C(=O)N[C@@H](Cc2ccc(O)cc2)C(=O)N2CCC[C@@H]2C(=O)N(C)[C@@H](C)C(=O)N[C@@H](Cc2ccc(F)cc2)C(=O)N1C [Compound 10] (cyclo(F[Tle]Y[dP][NMeA][Phe(4-F)][NMeA][Phe(4-Cl)][dPip]P)) , field IC50: 1 to 2.5 µM

The measured values listed here are drawn from patent US20220411471A1.
